# targetOfAssay: Oxysterols receptor LXR-beta (Homo sapiens)
# Sequence (whole entry): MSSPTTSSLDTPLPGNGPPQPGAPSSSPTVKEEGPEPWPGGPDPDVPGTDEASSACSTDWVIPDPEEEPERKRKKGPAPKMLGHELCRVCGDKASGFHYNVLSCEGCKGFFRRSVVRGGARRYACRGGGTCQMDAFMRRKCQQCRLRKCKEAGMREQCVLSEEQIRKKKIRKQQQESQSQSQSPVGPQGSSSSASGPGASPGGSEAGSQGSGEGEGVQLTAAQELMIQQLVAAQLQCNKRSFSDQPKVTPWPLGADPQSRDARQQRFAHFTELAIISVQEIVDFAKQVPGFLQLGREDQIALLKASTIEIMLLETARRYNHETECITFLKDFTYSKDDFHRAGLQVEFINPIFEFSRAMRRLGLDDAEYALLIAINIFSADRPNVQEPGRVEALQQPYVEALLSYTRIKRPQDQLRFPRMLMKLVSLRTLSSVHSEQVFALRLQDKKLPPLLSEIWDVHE
# protocolText: Agonist activity at full length human LXRbeta expressed in HEK293 cells harboring LXRE-Luc promoter at 10 uM by luciferase reporter gene assay relative to T0901317
# Type: cell-based
Activity calls are given as the source filed them. The calls are words filed in the database; no cut-off is given here.
readoutLabel: Emax

Below: 8 compounds and their reported Emax.
COc1cccc(-c2nc(-c3ccccc3)n(Cc3ccccc3)n2)c1 = 69%
CC(=O)n1nc(-c2ccc(C)cc2)nc1-c1ccccc1 = 62%
Brc1ccc(-c2nc(-c3ccccc3)n(Cc3ccccc3)n2)cc1 = 69%
COc1cccc(-c2nc(-c3ccccc3)n(S(=O)(=O)c3ccc(C)cc3)n2)c1 = inactive
Cc1ccc(S(=O)(=O)n2nc(-c3ccccc3)nc2-c2ccccc2)cc1 = 81%
Cn1nc(-c2ccccc2)nc1-c1ccccc1 = 71%
Clc1ccc(-c2n[nH]c(Cc3ccccc3)n2)cc1 = 73%
c1ccc(-c2n[nH]c(-c3cccnc3)n2)cc1 = inactive

Notebook: pull reported Emax for Oxysterols receptor LXR-beta (Homo sapiens), entry `CCCCn1nc(-c2ccc(Cl)cc2)nc1-c1ccccc1`
inactive

Notebook: pull reported Emax for Oxysterols receptor LXR-beta (Homo sapiens), entry `Clc1ccc(-c2n[nH]c(-c3ccccc3)n2)cc1`
60%

Notebook: pull reported Emax for Oxysterols receptor LXR-beta (Homo sapiens), entry `c1ccc(-c2nc(-c3ccccc3)n(C3CC3)n2)cc1`
inactive

Notebook: pull reported Emax for Oxysterols receptor LXR-beta (Homo sapiens), entry `CC(=O)n1nc(Cc2ccccc2)nc1-c1ccccc1`
68%

* * *

# targetOfAssay: Oxysterols receptor LXR-beta (Homo sapiens, UniProt P55055)
# protocolText: Agonist activity at full length human LXRbeta expressed in HEK293 cells harboring LXRE-Luc promoter by luciferase reporter gene assay
# Format: cell-based
Items are presented alongside their recorded EC50.
Give the value, in units of nM, as a plain number.

Below: 8 molecules and their reported EC50.
Clc1ccc(-c2n[nH]c(Cc3ccccc3)n2)cc1 = 2570
CC(=O)n1nc(-c2ccc(C)cc2)nc1-c1ccccc1 = 351
c1ccc(-c2n[nH]c(-c3ccccc3)n2)cc1 = 1010
Clc1ccc(-c2nc(-c3ccccc3)n(Cc3ccccc3)n2)cc1 = 6710
CC(=O)n1nc(-c2ccccc2)nc1-c1ccccc1 = 232
Clc1ccccc1-c1n[nH]c(-c2ccccc2)n1 = 640
Brc1ccc(-c2nc(-c3ccccc3)n(Cc3ccccc3)n2)cc1 = 712
Brc1ccc(-c2n[nH]c(-c3ccccc3)n2)cc1 = 68

Given the entry `Brc1ccccc1-c1n[nH]c(-c2ccccc2)n1` , report its measured EC50.
493

Given the entry `COc1cccc(-c2nc(-c3ccccc3)n(C(C)=O)n2)c1` , report its measured EC50.
109

Given the entry `CCn1nc(-c2ccc(Br)cc2)nc1-c1ccccc1` , report its measured EC50.
5650

Given the entry `COc1cccc(-c2n[nH]c(-c3ccccc3)n2)c1` , report its measured EC50.
68

Given the entry `Clc1ccccc1-c1n[nH]c(Cc2ccccc2)n1` , report its measured EC50.
966

Given the entry `CC(=O)n1nc(-c2ccc(Br)cc2)nc1-c1ccccc1` , report its measured EC50.
231

Given the entry `CC(=O)n1nc(Cc2ccccc2)nc1-c1ccccc1` , report its measured EC50.
1420

Given the entry `Cn1nc(-c2ccccc2)nc1-c1ccccc1` , report its measured EC50.
2640

Given the entry `Cc1ccc(S(=O)(=O)n2nc(-c3ccccc3)nc2-c2ccccc2)cc1` , report its measured EC50.
259

Given the entry `COc1cccc(-c2nc(-c3ccccc3)n(Cc3ccccc3)n2)c1` , report its measured EC50.
2360

Given the entry `Cn1nc(-c2ccc(Cl)cc2)nc1-c1ccccc1` , report its measured EC50.
1990

Given the entry `Clc1ccc(-c2n[nH]c(-c3ccccc3)n2)cc1` , report its measured EC50.
245

Given the entry `c1ccc(Cc2nc(-c3ccccc3)n[nH]2)cc1` , report its measured EC50.
6150

Given the entry `Cc1ccc(-c2n[nH]c(-c3ccccc3)n2)cc1` , report its measured EC50.
85

* * *

# targetOfAssay: UniProt P55055
# protocolText: Agonist activity at full length human LXRbeta expressed in HEK293 cells harboring LXRE-Luc promoter at 10 uM by luciferase reporter gene assay relative to T0901317
# Type: cell-based
Active and inactive are the calls of the source. The rule behind the calls is not given here.
readoutLabel: Emax

Below: 5 molecules and their reported Emax.
Cn1nc(-c2ccc(Cl)cc2)nc1-c1ccccc1 = 83%
CCn1nc(-c2ccc(Cl)cc2)nc1-c1ccccc1 = inactive
CCCCn1nc(-c2ccccc2)nc1-c1ccccc1 = inactive
c1ccc(Cn2nc(-c3ccccc3)nc2-c2ccccc2)cc1 = inactive
COc1cccc(-c2n[nH]c(-c3ccccc3)n2)c1 = 72%

Given the entry `Brc1ccccc1-c1n[nH]c(-c2ccccc2)n1` , report its measured Emax.
67%

Given the entry `Cc1ccc(-c2n[nH]c(-c3ccccc3)n2)cc1` , report its measured Emax.
73%

* * *

# targetOfAssay: Oxysterols receptor LXR-alpha (Homo sapiens, UniProt Q13133)
# Sequence (Q13133 whole entry): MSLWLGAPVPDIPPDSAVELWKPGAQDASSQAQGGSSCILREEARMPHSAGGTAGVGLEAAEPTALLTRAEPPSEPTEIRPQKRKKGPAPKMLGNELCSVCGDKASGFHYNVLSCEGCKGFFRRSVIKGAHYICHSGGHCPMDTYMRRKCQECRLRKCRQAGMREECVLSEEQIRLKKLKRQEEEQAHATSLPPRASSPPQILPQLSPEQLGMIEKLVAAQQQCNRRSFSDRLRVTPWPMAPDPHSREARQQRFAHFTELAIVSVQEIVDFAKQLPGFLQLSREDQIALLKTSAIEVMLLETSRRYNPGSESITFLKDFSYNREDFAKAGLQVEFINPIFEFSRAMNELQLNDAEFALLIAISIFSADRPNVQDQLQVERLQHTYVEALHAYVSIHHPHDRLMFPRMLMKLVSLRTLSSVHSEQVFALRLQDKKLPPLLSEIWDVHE
# protocolText: Agonist activity at full length human LXRalpha expressed in HEK293 cells harboring LXRE-Luc promoter by luciferase reporter gene assay
Recorded EC50 split into classes lower bin = under 600 nM, middle bin = from 600 nM up to 2000 nM, upper bin = 2000 nM and over

Hey, which category is `CC(=O)n1nc(Cc2ccccc2)nc1-c1ccccc1` in, do you know?
middle bin

Hey, which category is `Brc1ccc(-c2nc(-c3ccccc3)n(Cc3ccccc3)n2)cc1` in, do you know?
upper bin

Hey, which category is `Clc1ccccc1-c1n[nH]c(Cc2ccccc2)n1` in, do you know?
lower bin

Hey, which category is `Cn1nc(-c2ccccc2)nc1-c1ccccc1` in, do you know?
upper bin

Hey, which category is `Clc1ccc(-c2n[nH]c(-c3ccccc3)n2)cc1` in, do you know?
lower bin

Hey, which category is `Cn1nc(-c2ccc(Cl)cc2)nc1-c1ccccc1` in, do you know?
middle bin

* * *

# targetOfAssay: Oxysterols receptor LXR-alpha (Homo sapiens)
# protocolText: Agonist activity at full length human LXRalpha expressed in HEK293 cells harboring LXRE-Luc promoter by luciferase reporter gene assay
// classify: if (EC50 < 900 nM) t else f

Clc1ccc(-c2nc(-c3ccccc3)n(Cc3ccccc3)n2)cc1 = f

Hi there! Is EC50 for `CCn1nc(-c2ccc(Cl)cc2)nc1-c1ccccc1` below 900 nM, do you know?
f

Hi there! Is EC50 for `Clc1ccccc1-c1n[nH]c(-c2ccccc2)n1` below 900 nM, do you know?
t

Hi there! Is EC50 for `COc1cccc(-c2n[nH]c(-c3ccccc3)n2)c1` below 900 nM, do you know?
t

Hi there! Is EC50 for `c1ccc(Cc2nc(-c3ccccc3)n[nH]2)cc1` below 900 nM, do you know?
f
